These data points were gathered from PubChem BioAssay AID1159580.

- method_summary: chemical genetic growth profiling, strain panel (AID 1159580);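 also: tested at 20 µM; growth read once vehicle control cultures reached saturation at 30 °C; lower values mean less growth of the strain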
- condition_description: S. cerevisiae deletion strains, growth OD, locus YLR370C, strain arc18
The campaign covered roughly 5,500 compounds. About 2,000 (36%) were called active. Not shown: some 18% with an inconclusive outcome. Rule as the data show it: active = normalized growth mostly below about 0.91 (no sharp cut-off); inconclusive = no clear call, values can overlap the other calls; inactive = mostly above about 0.92. Some of the results follow. Where a SMILES comes first, the peptide text is derived from it. Bridges are numbered along the chain shown (N, C = ends). [ ]: non-standard residue; d: D form. The star is where a group is joined. ξ: configuration not given here. ξDab(CH2SO3H) = NC(CCNCS(=O)(=O)O)C(=O)O; Heptanoyl(6-Me) = CC(C)CCCCC(=O)*; Dab = NCC[CH](N)C(=O)O
Output constraint: value belongs to active, inactive

compound: FC(F)(F)c1ccccc1-n1ccnc1
classification: inactive

q: Returns: the outcome recorded for "Cc1cc(C(C)(C)C)c(O)c(C(C)(C)C)c1" in this assay.
a: inactive

q: Can you check "O=c1oc2cc(O)ccc2s1" next?
a: inactive

q: Can you check "CCOc1ccc2nc3cc(N)ccc3c(N)c2c1" next?
a: active

q: Can you check CCC(C)C1NC(=O)C(CCNCS(=O)(=O)O)NC(=O)C(NC(=O)C(CCNCS(=O)(=O)O)NC(=O)C(NC(=O)C(CCNCS(=O)(=O)O)NC(=O)CCCCC(C)C)C(C)O)CCNC(=O)C(C(C)O)NC(=O)C(CCNCS(=O)(=O)O)NC(=O)C(CCNCS(=O)(=O)O)NC(=O)C(C(C)CC)NC1=O (stereo unspecified) ({Heptanoyl(6-Me)}-[ξDab(CH2SO3H)]T[ξDab(CH2SO3H)][Dab][ξDab(CH2SO3H)]II[ξDab(CH2SO3H)][ξDab(CH2SO3H)]T; lactam 4-C; configuration not given here) next?
a: inactive

q: Can you check "COc1ccc2c(c1)c(CC(=O)O)c(C)n2C(=O)c1ccc(Cl)cc1" next?
a: inactive
